Reference for the values: the supplement of paper PMC9170038

# Tested on: MS2 coat protein
# measurement.protocol: apparent KD of MS2 coat protein; designed switch direction (-1 OFF switch, 1 ON switch): -1; higher = weaker reporter binding
# measurement.context: input ligand: FMN 200 uM
property: apparent KD of MS2 coat protein (µM)
Write it as a number; the unit µM goes unstated.

Here is how some sequences turned out for apparent KD of MS2 coat protein.
CCAGCGUAUGUGAGGAUAUGCUGGUCCUUGGAUCAGCAGAAGGCACAUGAGGAUCACCCAUGUGAGAGCGUUGG [JL bmx4 3.37] (Eterna round: R96, puzzle: Brourd's mod of Exclusion 4) | 0.187
AGUCGUAGACAGGAUAUGCGGCUAAUAAAUAAUGCAGAAGGGUCUACUUGAGGAUCACCCAAGUGGGCGGUCUG [jl-ex6-4.23 ViennaUCT mod] (Eterna round: R97, puzzle: Exclusion 6) | 0.0703

Ask: Which value of apparent KD of MS2 coat protein has been reported for GCAUGUCAGUAGGAUAUGCAGCACUUGAUACCUGCAGAAGGACUGACAUGAGGAUCACCCAUGUCUCGGGUGCU [EX6 A.10] (Eterna round: R97, puzzle: Exclusion 6) in the records?
Reply: 0.0168

Ask: Which value of apparent KD of MS2 coat protein has been reported for UUUUUGUAUGAAGGAUAUACUUAACAUGAGGAUCACCCAUGUGGUGUUGUGAGUGAGUGAGUUUAGUAGAAGGUCAAUUCUUUU [JMF's solution 88] (Eterna round: R96, puzzle: Exclusion NG 2) in the records?
Reply: 0.604

Ask: Which value of apparent KD of MS2 coat protein has been reported for AAUUUACAUGAGGAUCACCCAUGUGAGGAUAUGGAUUCGCUGGCCGUAGCCAGUGGAUCCAGAAGGCGCGUGAU [JL-ex1-4.28] (Eterna round: R97, puzzle: Exclusion 1) in the records?
Reply: 0.182

Ask: Which value of apparent KD of MS2 coat protein has been reported for GCCUUAUCGGUCAGGAUAUACACCCGUCACUUGUUGUAGAAGGGACAUGAGGAUCACCCAUGUACAUUACAUUG [alecazam37] (Eterna round: R97, puzzle: Brourd's mod of Exclusion 4) in the records?
Reply: 0.0313
